These measurements were taken from ChEMBL document CHEMBL4689842.

System: U2OS
TEST_METHOD_NOTES: Multiplex assay against U2OS
Type: toxicity, cell-based
STUDY_CONDITIONS: human, 24 h, 10 µM, compound concentration 10 uM, replicate 1
Response key: Satisfied means Population Hoechst High Intensity Objects (%) >= 5%; Not satisfied means Population Hoechst High Intensity Objects (%) < 5%.

1. Cc1cc2c(cc1N1C(=O)c3cccc4c(CCCO)ccc(c34)C1=O)n(C)c(=O)n2C
Not satisfied
2. COc1ccc(NS(=O)(=O)c2sc3ccc(Cl)cc3c2C)cc1N1CCNCC1.Cl
Satisfied

Form field: Population Hoechst High Intensity Objects (%) at least 5%? Entry: Nc1nc2c(c(N3CCNCC3)n1)CCC1=C2[C@@H]2CCCC[C@@H]2O1
Satisfied

Kindly determine if Population Hoechst High Intensity Objects (%) recorded for c1ccc2oc(-c3csc(C4CCN(Cc5nc6ncccc6[nH]5)CC4)n3)cc2c1 is above or exactly 5%.
Not satisfied
